Data provenance: ChEMBL document CHEMBL1127395

System: Enterobacter cloacae
Test: In vitro minimum inhibitory concentration for Enterobacter cloacae (ATCC-27508) by agar dilution method
Format: functional
Conditions: Enterobacter cloacae; read-out: MIC
Criterion: MIC strictly less than 0.03 µg/mL. Met: met. Not met: not met.

Previously resolved entries follow.
Consider Cc1c(N)nc(SCC2=C(C(=O)[O-])N3C(=O)C(NC(=O)/C(=N\OC(C)(C)C(=O)O)c4cnc(N)s4)C3SC2)[n+]2ncn(C)c12 (stereo not drawn) . Does its MIC lie strictly below 0.03 µg/mL? met

Consider Cc1cc(C)[n+](C)c(SCC2=C(C(=O)[O-])N3C(=O)C(NC(=O)/C(=N\OC(C)(C)C(=O)O)c4cnc(N)s4)C3SC2)n1 (stereo not drawn) . Does its MIC lie strictly below 0.03 µg/mL? not met

Consider CC(C)(O/N=C(\C(=O)NC1C(=O)N2C(C(=O)[O-])=C(CSc3nc(N)cc[n+]3N)CSC12)c1cnc(N)s1)C(=O)O (stereo not drawn) . Does its MIC lie strictly below 0.03 µg/mL? met

Consider CC(C)(O/N=C(\C(=O)NC1C(=O)N2C(C(=O)O)=C(CSc3nccc(O)n3)CSC12)c1cnc(N)s1)C(=O)O (stereo not drawn) . Does its MIC lie strictly below 0.03 µg/mL? not met

Consider CC(C)(O/N=C(\C(=O)NC1C(=O)N2C(C(=O)[O-])=C(CSc3nc(N)cc(N)[n+]3-c3ccc(Cl)cc3)CSC12)c1cnc(N)s1)C(=O)O (stereo not drawn) . Does its MIC lie strictly below 0.03 µg/mL? not met

Consider CN(C)c1cc2n(C)cc[n+]2c(SCC2=C(C(=O)[O-])N3C(=O)C(NC(=O)/C(=N\OC(C)(C)C(=O)O)c4cnc(N)s4)C3SC2)n1 (stereo not drawn) . Does its MIC lie strictly below 0.03 µg/mL? not met

Consider CC(C)(O/N=C(\C(=O)NC1C(=O)N2C(C(=O)O)=C(CSc3nc(N)cc(N)n3)CSC12)c1cnc(N)s1)C(=O)O (stereo not drawn) . Does its MIC lie strictly below 0.03 µg/mL? not met

Consider Cc1ccc(-[n+]2c(N)cc(N)nc2SCC2=C(C(=O)[O-])N3C(=O)C(NC(=O)/C(=N\OC(C)(C)C(=O)O)c4cnc(N)s4)C3SC2)c(C)c1 (stereo not drawn) . Does its MIC lie strictly below 0.03 µg/mL? not met

Consider CC(C)(O/N=C(\C(=O)NC1C(=O)N2C(C(=O)O)=C(CSc3ncccn3)CSC12)c1cnc(N)s1)C(=O)O (stereo not drawn) . Does its MIC lie strictly below 0.03 µg/mL? not met

// next entry
Consider Cn1cc[n+]2c(SCC3=C(C(=O)[O-])N4C(=O)C(NC(=O)/C(=N\OC(C)(C)C(=O)O)c5cnc(N)s5)C4SC3)nc(N3CCOCC3)cc12 (stereo not drawn) . Does its MIC lie strictly below 0.03 µg/mL? not met
